Assign Plat to each entry below.
- Species on record: Rattus norvegicus
- test-description: Open TG-GATES - Regimen: Daily Repeat
- Assay type: toxicity, organism-based, Sprague-Dawley
- Parameters: regimen Daily Repeat, gender Male, age 6 weeks
- details: in vivo, po, 0 mg/kg, 72 h, tissue Blood, route gavage, dose level Control, time 3 day
Use x10_4/uL as the unit, but write only the number.

Exercise: Reported Plat for CC(N)=O [ACETAMIDE] : what is it?
Solution: 126.3

Exercise: Now give it for CC(=O)Nc1ccc2c(c1)Cc1ccccc1-2 [2-ACETYLAMINOFLUORENE] too.
Solution: 127

Exercise: How about this molecule: CC[C@@H](CO)NCCN[C@@H](CC)CO [ETHAMBUTOL]
Solution: 127.2

Exercise: Also, CCN(CC)N=O [N-NITROSODIETHYLAMINE] please.
Solution: 135

Exercise: Now consider O=C(O)COc1nn(Cc2ccccc2)c2ccccc12 [BENDAZAC] .
Solution: 120.1

Exercise: Now try CC(=O)N1CCN(c2ccc(OCC3COC(Cn4ccnc4)(c4ccc(Cl)cc4Cl)O3)cc2)CC1 (stereo not drawn) [KETOCONAZOLE] .
Solution: 118.7

Exercise: CC(C)Cc1ccc(C(C)C(=O)O)cc1 (stereo not drawn) [IBUPROFEN] , same question.
Solution: 111.7

Exercise: Next record, please: CC(CCc1ccccc1)NCC(O)c1ccc(O)c(C(N)=O)c1 (stereo not drawn) [LABETALOL]
Solution: 116.3

Data credit: ChEMBL document CHEMBL3885861
